- protocol-description: 13 week toxicology and toxicokinetic study in cynomolgus monkeys
- Assay type: in vivo, cynomolgus monkey
- measurement-context: cynomolgus monkey, in vivo, 3 mg/kg; monkey, NOAEL 3 mpk; read-out: Cmax at NOAEL
test-readout: Cmax (ng/mL)
Could you give me the number in ng/mL? Just the number is fine.

Look up Cmax for this molecule: C=CC(=O)N1C[C@H](Nc2ncnc3[nH]cc([C@H]4CC4(F)F)c23)CC[C@@H]1C
232

###

- protocol-description: Phase 1 single ascending dose (SAD) study: pharmacokinetics, food effect, formulation bridging
- Format: in vivo, human
- measurement-context: both sexes, human, in vivo, po, 1 mg, single oral dose 1 mg, capsule, fasted
test-readout: Cmax (ng/mL)
Could you give me the number in ng/mL? Just the number is fine.

Look up Cmax for this compound: C=CC(=O)N1C[C@H](Nc2ncnc3[nH]cc([C@H]4CC4(F)F)c23)CC[C@@H]1C
2.71
